# Target: pre-existing anti-scFv903 antibodies in human serum H69 (human)
# Experiment notes: competition ADA bridging ELISA
Item-by-item account of signal change in competition ELISA (% reduction in OD)
Express your answer in %, writing the number without its unit.

Record excerpt, results attached:
Binder: scFv105 (scFv) scFv: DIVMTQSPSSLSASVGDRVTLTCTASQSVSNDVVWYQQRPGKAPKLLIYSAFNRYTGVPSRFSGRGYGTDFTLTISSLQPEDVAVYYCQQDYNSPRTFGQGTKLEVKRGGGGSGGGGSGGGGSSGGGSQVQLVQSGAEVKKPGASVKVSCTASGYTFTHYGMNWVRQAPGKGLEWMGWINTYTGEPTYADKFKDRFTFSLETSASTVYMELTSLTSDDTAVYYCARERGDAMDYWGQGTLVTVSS
Unit of measure: %
Measured: -88

Binder: scFv 903 (scFv) scFv: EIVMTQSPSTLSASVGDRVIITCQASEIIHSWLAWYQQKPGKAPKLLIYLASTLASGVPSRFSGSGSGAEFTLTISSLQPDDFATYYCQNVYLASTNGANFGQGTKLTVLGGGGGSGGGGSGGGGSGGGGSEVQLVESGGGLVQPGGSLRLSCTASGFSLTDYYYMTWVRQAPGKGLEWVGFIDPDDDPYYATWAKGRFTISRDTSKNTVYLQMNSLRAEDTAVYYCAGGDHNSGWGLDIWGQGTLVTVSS
Unit of measure: %
Measured: -92

Binder: scFv 961 (scFv) scFv: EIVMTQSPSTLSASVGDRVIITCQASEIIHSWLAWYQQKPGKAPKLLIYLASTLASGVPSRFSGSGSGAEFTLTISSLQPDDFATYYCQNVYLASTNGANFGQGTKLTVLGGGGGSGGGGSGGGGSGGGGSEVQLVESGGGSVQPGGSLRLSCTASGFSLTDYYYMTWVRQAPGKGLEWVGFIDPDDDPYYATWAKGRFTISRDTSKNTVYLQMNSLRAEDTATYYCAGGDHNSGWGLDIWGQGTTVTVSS
Unit of measure: %
Measured: -6

Now for another entry.
Noted for scFv 791 (scFv) scFv: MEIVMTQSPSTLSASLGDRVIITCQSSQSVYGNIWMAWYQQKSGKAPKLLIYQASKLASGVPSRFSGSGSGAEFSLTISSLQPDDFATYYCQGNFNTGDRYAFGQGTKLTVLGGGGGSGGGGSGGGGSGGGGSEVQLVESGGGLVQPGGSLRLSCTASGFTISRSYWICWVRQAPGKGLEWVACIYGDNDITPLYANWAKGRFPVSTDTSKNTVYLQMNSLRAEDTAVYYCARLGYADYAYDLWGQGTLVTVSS : its signal change in competition ELISA (% reduction in OD) reads -75

Value source: patent US20210214461A1
